These data points were gathered from ChEMBL document CHEMBL5247605.

# Organism: Mus musculus
# applied_conditions: ICR, dose 10.0 mM, route icv
# Description: Antialzheimer activity in human amyloid beta (3 to 40 residues) induced ICR mouse model assessed as inhibition of pyroglutamate form of amyloid-beta formation in brain at 10 mM, icv by sandwich ELISA
The source made the active and inactive calls. No cut-off for these calls is given here.
readout_kind: inhibition

>>> test_value("Cc1nn(C)c2cc(N(C(=O)NCCCn3cncc3C)C3CCCCC3)ccc12")
"inactive"
>>> test_value("Cc1nn(C)c2ccc(N(CC3CCCC3)C(=O)NCCCn3cncc3C)cc12")
"inactive"
>>> test_value("Cc1nn(C)c2ccc(N(C(=O)NCCCn3cncc3C)C3CCCCC3)cc12")
"inactive"

###

The following molecules each carry a recorded IC50 for Glutaminyl-peptide cyclotransferase (Mus musculus, UniProt Q9CYK2).
Write the numeric value and follow it with the unit.

Illustrative cases are given below, each with its answer.
>>> test_value("Cc1n[nH]c2cc(N(CC3CCCC3)C(=O)NCCCn3cncc3C)ccc12")
"18.2 nM"
>>> test_value("Cc1n[nH]c2cc(N(Cc3ccc(F)cc3)C(=O)NCCCn3cncc3C)ccc12")
"29.9 nM"

Shifting focus to the molecule that follows.
Challenge: Tell me IC50 of "Cc1n[nH]c2cc(N(C(=O)NCCCn3cncc3C)C3CCCCC3)ccc12" when tested on Glutaminyl-peptide cyclotransferase (Mus musculus, UniProt Q9CYK2).
Sequence (Q9CYK2 whole entry): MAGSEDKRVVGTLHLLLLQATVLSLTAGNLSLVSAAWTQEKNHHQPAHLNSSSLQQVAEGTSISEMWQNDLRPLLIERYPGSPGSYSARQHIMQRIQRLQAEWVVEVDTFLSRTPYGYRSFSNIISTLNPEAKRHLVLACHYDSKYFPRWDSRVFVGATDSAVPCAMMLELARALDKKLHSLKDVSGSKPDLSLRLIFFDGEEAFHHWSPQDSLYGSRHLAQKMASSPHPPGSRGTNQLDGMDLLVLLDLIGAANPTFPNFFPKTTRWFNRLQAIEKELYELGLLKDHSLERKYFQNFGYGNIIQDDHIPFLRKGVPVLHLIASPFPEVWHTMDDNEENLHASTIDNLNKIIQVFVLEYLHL
Response given: 34.2 nM

###

Some molecules, each annotated with its measured inhibition at 10 µM.
# experimental_target: hERG (KCNH2) (Homo sapiens, UniProt Q12809)
# Sequence (Q12809 whole entry): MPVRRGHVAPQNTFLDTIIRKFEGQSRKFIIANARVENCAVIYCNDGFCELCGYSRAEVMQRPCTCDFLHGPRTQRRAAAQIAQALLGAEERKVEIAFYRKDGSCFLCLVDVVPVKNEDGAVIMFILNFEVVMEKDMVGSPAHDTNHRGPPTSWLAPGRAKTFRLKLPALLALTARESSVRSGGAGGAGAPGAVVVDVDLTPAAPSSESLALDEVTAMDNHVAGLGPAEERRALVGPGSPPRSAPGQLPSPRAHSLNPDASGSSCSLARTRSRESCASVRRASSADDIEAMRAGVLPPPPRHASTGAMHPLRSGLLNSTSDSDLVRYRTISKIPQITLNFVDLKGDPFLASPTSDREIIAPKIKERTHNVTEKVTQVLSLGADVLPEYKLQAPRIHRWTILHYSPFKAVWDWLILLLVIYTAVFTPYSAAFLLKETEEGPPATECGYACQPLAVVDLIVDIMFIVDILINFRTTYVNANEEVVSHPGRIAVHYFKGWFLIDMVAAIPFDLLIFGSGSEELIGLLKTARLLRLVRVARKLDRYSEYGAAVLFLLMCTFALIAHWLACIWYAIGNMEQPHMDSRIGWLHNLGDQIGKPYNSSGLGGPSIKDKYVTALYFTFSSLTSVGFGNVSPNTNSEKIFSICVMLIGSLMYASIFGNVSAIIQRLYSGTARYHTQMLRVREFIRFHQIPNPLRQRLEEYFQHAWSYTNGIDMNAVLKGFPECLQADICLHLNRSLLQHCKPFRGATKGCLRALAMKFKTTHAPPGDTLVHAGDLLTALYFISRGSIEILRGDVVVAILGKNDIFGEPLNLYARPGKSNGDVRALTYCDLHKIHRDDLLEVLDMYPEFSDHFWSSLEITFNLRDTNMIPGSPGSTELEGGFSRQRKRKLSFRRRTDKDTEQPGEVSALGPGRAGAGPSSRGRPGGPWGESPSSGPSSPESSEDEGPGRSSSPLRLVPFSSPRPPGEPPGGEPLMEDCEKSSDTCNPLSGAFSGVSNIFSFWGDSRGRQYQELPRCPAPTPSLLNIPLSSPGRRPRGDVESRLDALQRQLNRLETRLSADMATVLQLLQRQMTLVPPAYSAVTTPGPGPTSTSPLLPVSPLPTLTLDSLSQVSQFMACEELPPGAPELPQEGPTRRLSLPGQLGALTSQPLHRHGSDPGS
# experimental_details: Inhibition of hERG at 10 uM by fluorescence polarization assay relative to control
# Format: toxicity
The answer is to be given in %; state only the numeric part.

Illustrative cases are given below, each with its answer.
>>> test_value("Cc1nn(C)c2ccc(N(Cc3ccc(F)cc3)C(=O)NCCCn3cncc3C)cc12")
63.6
>>> test_value("Cc1n[nH]c2cc(N(C(=O)NCCCn3cncc3C)C3CCCCC3)ccc12")
47.6

Challenge: Query inhibition at 10 µM for "Cc1cncn1CCCNC(=O)N(Cc1ccc(F)cc1)c1ccc2c(C)n(C)nc2c1"
Response given: 52

Challenge: Query inhibition at 10 µM for "Cc1nn(C)c2cc(N(C(=O)NCCCn3cncc3C)C3CCCCC3)ccc12"
Response given: 52.2

Challenge: Query inhibition at 10 µM for "Cc1nn(C)c2ccc(NC(=O)NCCCn3cncc3C)cc12"
Response given: 54.4

###

# experimental_details: Metabolic stability in mouse liver microsomes assessed as compound remaining after 30 mins
# Type: ADME, Microsome
# applied_conditions: read-out: Stability
readout_kind: remaining at 0.5 h (%)
The answer is to be given in %; state only the numeric part.

Illustrative cases are given below, each with its answer.
>>> test_value("Cc1n[nH]c2cc(N(C(=O)NCCCn3cncc3C)C3CCCCC3)ccc12")
18.4
>>> test_value("Cc1n[nH]c2cc(N(Cc3ccc(F)cc3)C(=O)NCCCn3cncc3C)ccc12")
7.2

Challenge: Query remaining at 0.5 h for "Cc1n[nH]c2cc(N(CC3CCCC3)C(=O)NCCCn3cncc3C)ccc12"
Response given: 11.8

###

# experimental_target: hERG (KCNH2) (Homo sapiens)
# experimental_details: Inhibition of hERG at 10 uM by fluorescence polarization assay relative to control
# Type: toxicity
readout_kind: inhibition at 10 µM
Write the numeric value and follow it with the unit.

>>> test_value("Cc1n[nH]c2ccc(N(Cc3ccc(F)cc3)C(=O)NCCCn3cncc3C)cc12")
"80.6%"

Challenge: Query inhibition at 10 µM for "Cc1n[nH]c2ccc(N(C(=O)NCCCn3cncc3C)C3CCCCC3)cc12"
Response given: 74.4%

Challenge: Query inhibition at 10 µM for "Cc1nn(C)c2cc(N(Cc3ccc(F)cc3)C(=O)NCCCn3cncc3C)ccc12"
Response given: 56.5%

Challenge: Query inhibition at 10 µM for "Cc1nn(C)c2ccc(N(Cc3cccnc3)C(=O)NCCCn3cncc3C)cc12"
Response given: 44.1%

Challenge: Query inhibition at 10 µM for "Cc1n[nH]c2cc(N(Cc3ccc(F)cc3)C(=O)NCCCn3cncc3C)ccc12"
Response given: 61.9%

###

# experimental_details: Metabolic stability in human liver microsomes assessed as compound remaining after 30 mins
# Assay type: ADME, Microsome
# applied_conditions: read-out: Stability
Some compounds, each annotated with its measured remaining at 0.5 h.
The answer is to be given in %; state only the numeric part.

>>> test_value("Cc1n[nH]c2cc(N(Cc3ccc(F)cc3)C(=O)NCCCn3cncc3C)ccc12")
40.1
>>> test_value("Cc1n[nH]c2cc(N(CC3CCCC3)C(=O)NCCCn3cncc3C)ccc12")
37

Shifting focus to the compound that follows.
Challenge: Query remaining at 0.5 h for "Cc1n[nH]c2cc(N(C(=O)NCCCn3cncc3C)C3CCCCC3)ccc12"
Response given: 50.4

###

Some compounds, each annotated with its measured inhibition at 10 µM.
# experimental_target: UniProt Q12809
# experimental_details: Inhibition of hERG at 10 uM by fluorescence polarization assay relative to control
# Type: toxicity
The answer is to be given in %; state only the numeric part.

Illustrative cases are given below, each with its answer.
>>> test_value("Cc1nn(C)c2ccc(N(C(=O)NCCCn3cncc3C)C3CCCCC3)cc12")
58.1
>>> test_value("Cc1n[nH]c2cc(N(CC3CCCC3)C(=O)NCCCn3cncc3C)ccc12")
80.8
>>> test_value("Cc1nn(C)c2cc(N(CC3CCCC3)C(=O)NCCCn3cncc3C)ccc12")
70.3
>>> test_value("Cc1nn(CCCCc2ccnc(N)c2)c2ccc(NC(=O)NCCCn3cncc3C)cc12")
50.3

Challenge: Query inhibition at 10 µM for "Cc1nn(C)c2ccc(N(CC3CCCC3)C(=O)NCCCn3cncc3C)cc12"
Response given: 81.5

###

# experimental_details: Cytotoxicity against mouse HT-22 cells assessed as cell viability at 10 uM incubated for 18 hrs by MTT assay relative to control
# Format: toxicity, cell-based
# applied_conditions: read-out: Activity
Some molecules, each annotated with its measured viability at 18 h, 10 µM.
The answer is to be given in %; state only the numeric part.

>>> test_value("Cc1nn(CCCCc2ccnc(N)c2)c2ccc(NC(=O)NCCCn3cncc3C)cc12")
98.7

Challenge: Query viability at 18 h, 10 µM for "Cc1nn(C)c2cc(N(CC3CCCC3)C(=O)NCCCn3cncc3C)ccc12"
Response given: 107

Challenge: Query viability at 18 h, 10 µM for "Cc1cncn1CCCNC(=O)N(Cc1ccc(F)cc1)c1ccc2c(C)n(C)nc2c1"
Response given: 91.3

###

The following compounds each carry a recorded IC50 for Voltage-gated inwardly rectifying potassium channel KCNH2 (Homo sapiens, UniProt Q12809).

>>> test_value("Cc1nn(C)c2ccc(N(Cc3cccnc3)C(=O)NCCCn3cncc3C)cc12")
"< 10 µM"
>>> test_value("Cc1nn(C)c2cc(N(CC3CCCC3)C(=O)NCCCn3cncc3C)ccc12")
"> 10 µM"
>>> test_value("Cc1nn(C)c2ccc(N(CC3CCCC3)C(=O)NCCCn3cncc3C)cc12")
"> 10 µM"

Challenge: Query IC50 for "Cc1n[nH]c2cc(N(C(=O)NCCCn3cncc3C)C3CCCCC3)ccc12"
Response given: < 10 µM

Challenge: Query IC50 for "Cc1nn(C)c2ccc(N(C(=O)NCCCn3cncc3C)C3CCCCC3)cc12"
Response given: > 10 µM

###

# experimental_details: Cytotoxicity against mouse HT-22 cells assessed as cell viability at 10 uM incubated for 18 hrs by MTT assay relative to control
# Type: toxicity, cell-based
# applied_conditions: read-out: Activity
readout_kind: viability at 18 h, 10 µM (%)
The answer is to be given in %; state only the numeric part.

Illustrative cases are given below, each with its answer.
>>> test_value("Cc1nn(C)c2cc(N(Cc3ccc(F)cc3)C(=O)NCCCn3cncc3C)ccc12")
102
>>> test_value("Cc1n[nH]c2cc(N(Cc3ccc(F)cc3)C(=O)NCCCn3cncc3C)ccc12")
92.1

Shifting focus to the molecule that follows.
Challenge: Query viability at 18 h, 10 µM for "Cc1nn(C)c2ccc(NC(=O)NCCCn3cncc3C)cc12"
Response given: 104

###

Some compounds, each annotated with its measured viability at 18 h, 10 µM.
# experimental_details: Cytotoxicity against mouse HT-22 cells assessed as cell viability at 10 uM incubated for 18 hrs by MTT assay relative to control
# Assay type: toxicity, cell-based
# applied_conditions: read-out: Activity
The answer is to be given in %; state only the numeric part.

Illustrative cases are given below, each with its answer.
>>> test_value("Cc1nn(C)c2cc(N(C(=O)NCCCn3cncc3C)C3CCCCC3)ccc12")
102
>>> test_value("Cc1nn(C)c2ccc(N(C(=O)NCCCn3cncc3C)C3CCCCC3)cc12")
99.1
>>> test_value("Cc1n[nH]c2ccc(N(Cc3ccc(F)cc3)C(=O)NCCCn3cncc3C)cc12")
97.2

Challenge: Query viability at 18 h, 10 µM for "Cc1n[nH]c2cc(N(C(=O)NCCCn3cncc3C)C3CCCCC3)ccc12"
Response given: 100

Challenge: Query viability at 18 h, 10 µM for "Cc1nn(C)c2ccc(N(Cc3ccc(F)cc3)C(=O)NCCCn3cncc3C)cc12"
Response given: 108

Challenge: Query viability at 18 h, 10 µM for "Cc1n[nH]c2cc(N(CC3CCCC3)C(=O)NCCCn3cncc3C)ccc12"
Response given: 96.9

Challenge: Query viability at 18 h, 10 µM for "Cc1nn(C)c2ccc(N(CC3CCCC3)C(=O)NCCCn3cncc3C)cc12"
Response given: 104

Challenge: Query viability at 18 h, 10 µM for "Cc1n[nH]c2ccc(N(C(=O)NCCCn3cncc3C)C3CCCCC3)cc12"
Response given: 100

Challenge: Query viability at 18 h, 10 µM for "Cc1nn(C)c2ccc(N(Cc3cccnc3)C(=O)NCCCn3cncc3C)cc12"
Response given: 98.3
